Hey, just so you know, these numbers are from paper PMC9486809.

Target: PD-L1 (Homo sapiens, UniProt Q9NZQ7)
Sequence (Q9NZQ7 18-239): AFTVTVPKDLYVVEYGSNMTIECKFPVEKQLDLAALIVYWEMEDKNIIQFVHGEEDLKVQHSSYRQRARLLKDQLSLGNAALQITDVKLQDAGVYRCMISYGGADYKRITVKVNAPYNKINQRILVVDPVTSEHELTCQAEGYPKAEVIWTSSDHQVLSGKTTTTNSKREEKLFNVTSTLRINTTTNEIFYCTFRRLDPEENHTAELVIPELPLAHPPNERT
Test: biochemical
Design: gene CD274; ectodomain, PD-L1-long (amino acids 18–239); Differential scanning fluorimetry, melting temperature shift of PD-L1 ectodomain (PD-L1-long)
Conditions: read-out: DSF (°C)
Description: Fragments were screened in both techniques as singletons. […] The fragments were tested at a final concentration of 0.1 mM. […] DSF hits were defined as fragments, resulting in an increase or decrease in melting point of PD-L1 by at least 0.5 °C. […] Having the library in hand, we carried out screening using differential scanning fluorimetry and 1D NMR techniques. Previously, the fragment-based approach with a large library of compounds (>13 000) was tested on the PD-L1 V1 domain.[33] […]
Measured Property: ΔTm at 100 µM (°C)

Please review the entries below; each comes with its answer.
# Sample Smiles, Assayed Target, Experimental Result
measured = [
    ("Oc1cccc(-c2cccc(Br)c2)c1", "PD-L1 (Homo sapiens, UniProt Q9NZQ7)", 0.1),
    ("Cc1c(-c2ccc3c(c2)OCCO3)cccc1N1CCCCC1=O", "PD-L1 (Homo sapiens, UniProt Q9NZQ7)", 0.3),
]

A. Cc1c(N)cccc1-c1cccc(N)c1C
B. Cc1c(N)cccc1-c1ccccn1
C. Nc1c(-c2ccc3c(c2)OCCO3)cccc1-c1ccc2c(c1)OCCO2
D. Cc1c(N)cccc1-c1ccc(C#N)cc1
Problem: Please produce an ascending ranking of these compounds based on ΔTm at 100 µM. Return value: ordered labels per request.
Solution: A, D, B, C
(A: -1.2 °C, D: 0.1 °C, B: 0.3 °C, C: 0.5 °C)
